Target: Gonadotropin-releasing hormone receptor (Homo sapiens) (UniProt P30968)
Sequence (P30968 whole entry, looked up): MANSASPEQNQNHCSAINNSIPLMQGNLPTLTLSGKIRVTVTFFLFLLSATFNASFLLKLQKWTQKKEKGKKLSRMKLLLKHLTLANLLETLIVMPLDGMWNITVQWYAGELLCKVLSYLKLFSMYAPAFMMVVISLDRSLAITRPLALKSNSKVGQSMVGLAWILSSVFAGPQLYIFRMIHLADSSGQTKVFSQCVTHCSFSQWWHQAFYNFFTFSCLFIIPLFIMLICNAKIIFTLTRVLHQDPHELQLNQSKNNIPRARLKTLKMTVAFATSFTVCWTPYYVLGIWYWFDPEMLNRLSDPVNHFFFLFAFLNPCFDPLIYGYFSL
Experiment: Human gonadotropin-releasing hormone receptor (GnRHR) small molecule agonists, calcium flux assay in GnRHR-HEK293 cells (AID 1920063); also: nearly all actives have a fitted effect of over 35% in size
Conditions: calcium flux fluorescence, agonist mode; series mostly up to 57.6 µM
Active and inactive are the calls of the source. Calls follow the shape of the full dose curve.
quantity_measured: outcome

1. COc1ccc(C(=O)c2c(C)n(CCN3CCOCC3)c3ccccc23)cc1: inactive
2. c1ccc2c(c1)OCC(C1=NCCN1)O2 (configuration not stated): inactive
3. CNC(=O)CSP(=O)(OC)OC: inactive
4. CC(C)(C)C(=O)C(Oc1ccc(Cl)cc1)n1cncn1 (configuration not stated): inactive
5. CCS(=O)(=O)CCSP(=O)(OC)OC: inactive
6. CC(Cc1ccc(C(C)(C)C)cc1)CN1C[C@@H](C)O[C@@H](C)C1 (some centres not stated): inactive
7. [Cl-].[Cl-].[Cl-].[Yb+3]: inactive
